Experiment: physchem
Settings: 1% DMSO : 99% PBS buffer solution
A collection of compounds and their measured solubility kinetic at 2 h

{"columns": ["Compound", "solubility kinetic at 2 h"],
 "data": [
  ["CC(=O)N1CCC(NC(=O)NC23CC4CC(CC(C4)C2)C3)CC1", "> 100 µM"],
  ["CC(=O)N1CCC(NC(=O)NC23CC4(C)CC2CC4(C)C3)CC1", "> 100 µM"],
  ["CC12CC3CC1(C)CC3(NC(=O)Nc1ccc(F)c(F)c1F)C2", "66 µM"],
  ["CC(=O)N1CCC(NC(=O)NC2C3CC4C5CC6CC4C2C(C6)C5C3)CC1 (stereo unspecified)", "86 µM"],
  ["O=C(Nc1ccc(F)c(F)c1F)NC12CC3CC(CC(C3)C1)C2", "57 µM"],
  ["O=C(NC1C2CC3C4CC5CC3C1C(C5)C4C2)N[C@H]1CC[C@H](Oc2ccc(C(=O)O)cc2)CC1 (stereo partly specified)", "7 µM"]
]}
